- protocol_notes: Mean Cmax of acetylsalicylic acid concentration after administration of Genuine Bayer Aspirin Tablet at fasting condition in human
- Format: ADME, organism-based
- Parameters: dietary status Fasting, dose 650 mg, dosed compound id 2.46814e+06, dosed compound name Acetylsalicylic acid, regimen Single, route oral, sampling time 24 h, study doses 325/650 mg
- test_settings: plasma, po, 650 mg
property_label: Cmax
Put your answer as a value accompanied by its unit after it.

Quick one: Cmax of CC(=O)Oc1ccccc1C(=O)O [ASPIRIN] ?
5100 ng/mL

###

- protocol_notes: Mean AUC0-t of acetylsalicylic acid concentration after administration of Genuine Bayer Aspirin Tablet at fasting condition in human
- Format: ADME, organism-based
- Design: dietary status Fasting, dose 325 mg, dosed compound id 2.46814e+06, dosed compound name Acetylsalicylic acid, regimen Single, route oral, sampling time 24 h, study doses 325/650 mg
- test_settings: plasma, po, 325 mg
property_label: AUC(0-t) (ng·h/mL)
Number in ng·h/mL, nothing else.

Quick one: AUC(0-t) of "CC(=O)Oc1ccccc1C(=O)O" ?
3520

###

- protocol_notes: Mean terminal elimination half-life of acetylsalicylic acid concentration after administration of Genuine Bayer Aspirin Tablet at fasting condition in human
- Assay type: ADME, organism-based
- Set-up: dietary status Fasting, dose 325 mg, dosed compound id 2.46814e+06, dosed compound name Acetylsalicylic acid, regimen Single, route oral, sampling time 24 h, study doses 325/650 mg
- test_settings: plasma, po, 325 mg
property_label: half-life

Quick one: half-life of "CC(=O)Oc1ccccc1C(=O)O" ?
31 min

###

- protocol_notes: Mean Tmax of acetylsalicylic acid concentration after administration of Genuine Bayer Aspirin Tablet at fasting condition in human
- Format: ADME, organism-based
- Design: dietary status Fasting, dose 325 mg, dosed compound id 2.46814e+06, dosed compound name Acetylsalicylic acid, regimen Single, route oral, sampling time 24 h, study doses 325/650 mg
- test_settings: plasma, po, 325 mg
property_label: Tmax (h)
Number in h, nothing else.

Quick one: Tmax of "CC(=O)Oc1ccccc1C(=O)O" ?
1.13

###

- protocol_notes: Mean Tmax of acetylsalicylic acid concentration after administration of Genuine Bayer Aspirin Tablet at fasting condition in human
- Type: ADME, organism-based
- Parameters: dietary status Fasting, dose 650 mg, dosed compound id 2.46814e+06, dosed compound name Acetylsalicylic acid, regimen Single, route oral, sampling time 24 h, study doses 325/650 mg
- test_settings: plasma, po, 650 mg
property_label: Tmax
Put your answer as a value accompanied by its unit after it.

Quick one: Tmax of "CC(=O)Oc1ccccc1C(=O)O" ?
40 min

###

- protocol_notes: Mean terminal elimination half-life of acetylsalicylic acid concentration after administration of Genuine Bayer Aspirin Tablet at fasting condition in human
- Type: ADME, organism-based
- Parameters: dietary status Fasting, dose 650 mg, dosed compound id 2.46814e+06, dosed compound name Acetylsalicylic acid, regimen Single, route oral, sampling time 24 h, study doses 325/650 mg
- test_settings: plasma, po, 650 mg
property_label: half-life (min)
Number in min, nothing else.

Quick one: half-life of "CC(=O)Oc1ccccc1C(=O)O" ?
55

###

- protocol_notes: Mean AUCinfinity of acetylsalicylic acid concentration after administration of Genuine Bayer Aspirin Tablet at fasting condition in human
- Format: ADME, organism-based
- Design: time infinity, dietary status Fasting, dose 325 mg, dosed compound id 2.46814e+06, dosed compound name Acetylsalicylic acid, regimen Single, route oral, sampling time 24 h, study doses 325/650 mg
- test_settings: plasma, po, 325 mg, read-out: AUCinfinity (converted)
property_label: AUC(0-inf) (ng·h/mL)
Number in ng·h/mL, nothing else.

Quick one: AUC(0-inf) of "CC(=O)Oc1ccccc1C(=O)O" ?
3830

###

- protocol_notes: Mean Cmax of acetylsalicylic acid concentration after administration of Genuine Bayer Aspirin Tablet at fasting condition in human
- Format: ADME, organism-based
- Design: dietary status Fasting, dose 325 mg, dosed compound id 2.46814e+06, dosed compound name Acetylsalicylic acid, regimen Single, route oral, sampling time 24 h, study doses 325/650 mg
- test_settings: plasma, po, 325 mg
property_label: Cmax (ng/mL)
Number in ng/mL, nothing else.

Quick one: Cmax of "CC(=O)Oc1ccccc1C(=O)O" ?
2590

###

- protocol_notes: Mean AUC0-t of acetylsalicylic acid concentration after administration of Genuine Bayer Aspirin Tablet at fasting condition in human
- Type: ADME, organism-based
- Parameters: dietary status Fasting, dose 650 mg, dosed compound id 2.46814e+06, dosed compound name Acetylsalicylic acid, regimen Single, route oral, sampling time 24 h, study doses 325/650 mg
- test_settings: plasma, po, 650 mg
property_label: AUC(0-t) (ng·h/mL)
Number in ng·h/mL, nothing else.

Quick one: AUC(0-t) of "CC(=O)Oc1ccccc1C(=O)O" ?
6880

###

- protocol_notes: Mean AUCinfinity of acetylsalicylic acid concentration after administration of Genuine Bayer Aspirin Tablet at fasting condition in human
- Assay type: ADME, organism-based
- Set-up: time infinity, dietary status Fasting, dose 650 mg, dosed compound id 2.46814e+06, dosed compound name Acetylsalicylic acid, regimen Single, route oral, sampling time 24 h, study doses 325/650 mg
- test_settings: plasma, po, 650 mg, read-out: AUCinfinity (converted)
property_label: AUC(0-inf) (ng·h/mL)
Number in ng·h/mL, nothing else.

Quick one: AUC(0-inf) of "CC(=O)Oc1ccccc1C(=O)O" ?
7280
